# assaySystem: AKT2 (Homo sapiens, UniProt P31751)
# Construct: expressed in transfected cells; host or cells: HEK293
# Sequence (P31751 whole entry): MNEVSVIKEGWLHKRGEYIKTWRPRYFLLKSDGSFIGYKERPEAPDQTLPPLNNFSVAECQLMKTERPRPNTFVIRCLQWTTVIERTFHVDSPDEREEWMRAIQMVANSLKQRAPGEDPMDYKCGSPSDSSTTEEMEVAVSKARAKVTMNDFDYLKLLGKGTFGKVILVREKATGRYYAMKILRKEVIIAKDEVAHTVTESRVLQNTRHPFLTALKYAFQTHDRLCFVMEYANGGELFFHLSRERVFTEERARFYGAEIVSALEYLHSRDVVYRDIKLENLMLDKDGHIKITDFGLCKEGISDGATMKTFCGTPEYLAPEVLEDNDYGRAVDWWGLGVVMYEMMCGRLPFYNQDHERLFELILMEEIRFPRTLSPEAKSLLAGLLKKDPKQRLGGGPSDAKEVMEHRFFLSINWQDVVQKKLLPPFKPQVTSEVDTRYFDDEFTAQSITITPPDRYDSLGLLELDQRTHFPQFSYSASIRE
# measurementNotes: Live cell AKT2 target engagement by NanoBRET competitive probe displacement in HEK293 cells
# Format: binding
# statedConditions: NanoBRET live cell target engagement, HEK293 cells, 2 h at 37° C.; read-out: AKT2 IC50
pIC50: −log10 of the molar value.

molecularString	pIC50
Cc1ccc(C(=O)N[C@H]2CCc3cc(-n4c(-c5cccnc5N)nc5ccc(-c6nc(C)cs6)nc54)ccc32)cn1	8.07
Nc1ncccc1-c1nc2ccc(-n3cccn3)nc2n1-c1ccc2c(c1)CC[C@@H]2NCc1ccccn1	6.11
CC(=O)NCC#Cc1ccc2nc(-c3cccnc3N)n(-c3ccc4c(c3)CC[C@@H]4NC(=O)c3ccc(C)nc3)c2n1	5.16
Nc1ncccc1-c1nc2ccc(-n3cccn3)nc2n1-c1ccc2c(c1)CC[C@@H]2NC(=O)Cc1ccccn1	5.43

====

# assaySystem: AKT2 (Homo sapiens)
# Construct: expressed in transfected cells; host or cells: HEK293
# measurementNotes: Live cell AKT2 target engagement by NanoBRET competitive probe displacement in HEK293 cells
# Type: binding
# statedConditions: NanoBRET live cell target engagement, HEK293 cells, 2 h at 37° C.; read-out: AKT2 IC50

molecule	IC50
Cc1ccc2nc(-c3cccnc3N)n(-c3ccc4c(c3)CC[C@@H]4NC(=O)c3ccc(C(F)F)nc3)c2n1	> 10000 nM
Nc1ncccc1-c1nc2ccc(-n3cccn3)nc2n1-c1ccc2c(c1)CC[C@@H]2NCc1ccc(C(F)F)nc1	1960 nM
Nc1ncccc1-c1nc2ccc(-n3nccn3)nc2n1-c1ccc2c(c1)CC[C@@H]2NC(=O)c1cccnc1	2040 nM
Nc1ncccc1-c1nc2ccc(-n3cccn3)nc2n1-c1ccc2c(c1)CC[C@@H]2n1cc(C2CCO2)nn1 (stereo partly drawn) [Compound 353]	1270 nM
Nc1ncccc1-c1nc2ccc(-n3cccn3)nc2n1-c1ccc2c(c1)CC[C@@H]2NC(=O)c1cccnc1OC(F)(F)F	1910 nM
Nc1ncccc1-c1nc2ccc(-c3ccn(C(F)F)n3)nc2n1-c1ccc2c(c1)CC[C@@H]2NC(=O)c1ccc(C(F)F)nc1	34.8 nM

====

Listing: pIC50 of selected molecules
# assaySystem: AKT1 WT (Homo sapiens)
# Construct: expressed in transfected cells; host or cells: HEK293
# Sequence (P31749 whole entry): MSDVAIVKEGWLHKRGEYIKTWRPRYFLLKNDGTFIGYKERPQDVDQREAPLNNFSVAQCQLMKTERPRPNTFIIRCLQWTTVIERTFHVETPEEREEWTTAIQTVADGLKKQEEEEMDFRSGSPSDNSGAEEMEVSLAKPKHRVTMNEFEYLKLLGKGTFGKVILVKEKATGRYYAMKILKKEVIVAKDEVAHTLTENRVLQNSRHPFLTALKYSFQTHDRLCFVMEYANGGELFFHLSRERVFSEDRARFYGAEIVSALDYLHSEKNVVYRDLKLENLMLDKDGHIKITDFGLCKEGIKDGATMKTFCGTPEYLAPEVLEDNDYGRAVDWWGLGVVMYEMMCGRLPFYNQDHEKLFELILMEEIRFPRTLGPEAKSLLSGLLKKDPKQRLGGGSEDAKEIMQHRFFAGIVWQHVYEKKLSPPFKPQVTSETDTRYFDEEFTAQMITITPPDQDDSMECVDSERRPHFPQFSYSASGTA
# measurementNotes: Live cell AKT1 WT target engagement by NanoBRET competitive probe displacement in HEK293 cells
# Assay type: binding
# statedConditions: NanoBRET live cell target engagement, HEK293 cells, 2 h at 37° C.; read-out: AKT1 WT IC50
pIC50: −log10 of the molar value.
measuredEndpoint: pIC50

molecularString	assaySystem	measuredEndpoint	censoringQualifier	experimentalValue
Cc1ccc(C(=O)N[C@H]2CCc3cc(-n4c(-c5cccnc5N)nc5ccc(-c6cnn(C)n6)nc54)ccc32)cn1	AKT1 WT (Homo sapiens)	pIC50	=	8.10
Nc1ncccc1-c1nc2ccc(-n3cccn3)nc2n1-c1ccc2c(c1)CC[C@@H]2NC(=O)c1cnc(O)c(F)c1	AKT1 WT (Homo sapiens)	pIC50	=	7.25
Cc1ncc(C(=O)N[C@H]2CCc3cc(-n4c(-c5cccnc5N)nc5ccc(-n6cccn6)nc54)ccc32)c(C)n1	AKT1 WT (Homo sapiens)	pIC50	=	7.73
Nc1ncccc1-c1nc2ccc(-n3cccn3)nc2n1-c1ccc2c(c1)CC[C@@H]2NC(=O)C1COC1	AKT1 WT (Homo sapiens)	pIC50	=	6.67
Nc1ncccc1-c1nc2ccc(-n3cccn3)nc2n1-c1ccc2c(c1)CC[C@@H]2NC(=O)N1CCOCC1	AKT1 WT (Homo sapiens)	pIC50	<	6.00
Cc1nccnc1C(=O)N[C@H]1CCc2cc(-n3c(-c4cccnc4N)nc4ccc(-c5cnn(C)n5)nc43)ccc21	AKT1 WT (Homo sapiens)	pIC50	=	6.55
Nc1ncccc1-c1nc2ccc(-n3cccn3)nc2n1-c1ccc2c(c1)CC[C@@H]2NC(=O)c1ccc2c(c1)CC(=O)N2	AKT1 WT (Homo sapiens)	pIC50	=	8.03
Cc1ccc(C(=O)N[C@H]2CCc3cc(-n4c(-c5cccnc5N)nc5ccc(-c6nc(C)co6)nc54)ccc32)cn1	AKT1 WT (Homo sapiens)	pIC50	=	7.84
CN(C)c1cc(C(=O)N[C@H]2CCc3cc(-n4c(-c5cccnc5N)nc5ccc(-n6cccn6)nc54)ccc32)ccn1	AKT1 WT (Homo sapiens)	pIC50	=	8.59
Cc1cnc(-c2ccc3nc(-c4cccnc4N)n(-c4ccc5c(c4)CC[C@@H]5NC(=O)c4nccnc4C)c3n2)s1	AKT1 WT (Homo sapiens)	pIC50	=	7.12
CC#Cc1ccc2nc(-c3cccnc3N)n(-c3ccc4c(c3)CC[C@@H]4NC(=O)c3ccc(C)nc3)c2n1	AKT1 WT (Homo sapiens)	pIC50	=	7.44
Cc1cc(C(=O)N[C@H]2CCc3cc(-n4c(-c5cccnc5N)nc5ccc(-n6cccn6)nc54)ccc32)nn1C(F)F	AKT1 WT (Homo sapiens)	pIC50	=	7.52
N#Cc1cc(C(=O)N[C@H]2CCc3cc(-n4c(-c5cccnc5N)nc5ccc(-n6cccn6)nc54)ccc32)ccc1O	AKT1 WT (Homo sapiens)	pIC50	=	6.69
Nc1ncccc1-c1nc2ccc(-n3cccn3)nc2n1-c1ccc2c(c1)CC[C@@H]2NC(=O)c1cccnc1OC(F)(F)F	AKT1 WT (Homo sapiens)	pIC50	=	6.97
C#Cc1ncccc1C(=O)N[C@H]1CCc2cc(-n3c(-c4cccnc4N)nc4ccc(-n5cccn5)nc43)ccc21	AKT1 WT (Homo sapiens)	pIC50	=	7.68
Cc1nc(C(F)F)ccc1C(=O)N[C@H]1CCc2cc(-n3c(-c4cccnc4N)nc4ccc(-n5nccn5)nc43)ccc21	AKT1 WT (Homo sapiens)	pIC50	=	7.38
Nc1ncccc1-c1nc2ccc(-n3cccn3)nc2n1-c1ccc2c(c1)CC[C@@H]2NC(=O)c1cccnc1-n1cccn1	AKT1 WT (Homo sapiens)	pIC50	=	6.64
Nc1ncccc1-c1nc2ccc(-n3cccn3)nc2n1-c1ccc2c(c1)CC[C@@H]2NC(=O)c1cnc2ccnn2c1	AKT1 WT (Homo sapiens)	pIC50	=	8.04
Nc1ncccc1-c1nc2ccc(-n3cccn3)nc2n1-c1ccc2c(c1)CC[C@@H]2N1CCCC1	AKT1 WT (Homo sapiens)	pIC50	=	7.26
Nc1ncccc1-c1nc2ccc(-n3cccn3)nc2n1-c1ccc2c(c1)CC[C@@H]2NC(=O)c1ccnc(OC(F)F)c1	AKT1 WT (Homo sapiens)	pIC50	=	8.25
Cn1nc(C(=O)N[C@H]2CCc3cc(-n4c(-c5cccnc5N)nc5ccc(-n6cccn6)nc54)ccc32)c2c1OCC2	AKT1 WT (Homo sapiens)	pIC50	=	7.80

====

# assaySystem: AKT1 E17K (Homo sapiens, UniProt P31749, E17K)
# Construct: expressed in transfected cells; host or cells: HEK293
# Sequence (P31749 whole entry E17K): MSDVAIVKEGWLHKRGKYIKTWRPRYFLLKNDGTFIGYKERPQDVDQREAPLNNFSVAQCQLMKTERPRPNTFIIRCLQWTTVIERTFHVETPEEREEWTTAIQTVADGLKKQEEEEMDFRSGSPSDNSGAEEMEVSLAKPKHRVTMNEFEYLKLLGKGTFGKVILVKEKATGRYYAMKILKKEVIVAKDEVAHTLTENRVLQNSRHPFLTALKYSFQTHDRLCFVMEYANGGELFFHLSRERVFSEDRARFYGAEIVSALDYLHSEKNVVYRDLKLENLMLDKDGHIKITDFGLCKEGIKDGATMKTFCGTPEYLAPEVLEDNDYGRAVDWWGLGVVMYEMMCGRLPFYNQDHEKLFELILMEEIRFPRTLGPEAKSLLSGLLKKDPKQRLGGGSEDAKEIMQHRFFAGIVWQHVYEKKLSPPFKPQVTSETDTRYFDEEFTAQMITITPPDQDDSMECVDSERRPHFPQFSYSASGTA
# measurementNotes: Live cell AKT1 E17K target engagement by NanoBRET competitive probe displacement in HEK293 cells
# Type: binding
# statedConditions: NanoBRET live cell target engagement, HEK293 cells, 2 h at 37° C.
measuredEndpoint: IC50

molecularString	measuredEndpoint	experimentalValue
Cn1ccc(N2CCC(N[C@H]3CCc4cc(-n5c(-c6cccnc6N)nc6ccc(-n7cccn7)nc65)ccc43)CC2)n1	IC50	> 1000 nM
Cc1nc(C(F)F)ccc1C(=O)N[C@H]1CCc2cc(-n3c(-c4cccnc4N)nc4ccc(-n5nccn5)nc43)ccc21	IC50	> 1000 nM
Nc1ncccc1-c1nc2ccc(-n3cccn3)nc2n1-c1ccc2c(c1)CC[C@@H]2NC1CCN(C(=O)c2cccnc2)CC1	IC50	> 1000 nM

====

# assaySystem: AKT2 (Homo sapiens)
# Construct: expressed in transfected cells; host or cells: HEK293
# measurementNotes: Live cell AKT2 target engagement by NanoBRET competitive probe displacement in HEK293 cells
# Format: binding
# statedConditions: NanoBRET live cell target engagement, HEK293 cells, 2 h at 37° C.; read-out: AKT2 IC50
pIC50: −log10 of the molar value.
Listing: pIC50 of selected molecules

molecularString	pIC50
Nc1ncccc1-c1nc2ccc(-n3cccn3)nc2n1-c1ccc2c(c1)CC[C@@H]2NC(=O)c1cc[nH]c(=O)c1	6.03
CC#Cc1ccc2nc(-c3cccnc3N)n(-c3ccc4c(c3)CC[C@@H]4NC(=O)c3ccc(C)nc3)c2n1	5.73
Cc1cc(C(=O)N[C@H]2CCc3cc(-n4c(-c5cccnc5N)nc5ccc(-n6cccn6)nc54)ccc32)nn1C(F)F	6.16
Nc1ncccc1-c1nc2ccc(-n3cccn3)nc2n1-c1ccc2c(c1)CC[C@@H]2NC(=O)c1cnc2ccnn2c1	7.24
Nc1ncccc1-c1nc2ccc(-n3cccn3)nc2n1-c1ccc2c(c1)CC[C@@H]2NC(=O)c1ccc2ccnn2c1	7.72
Nc1ncccc1-c1nc2ccc(-n3cccn3)nc2n1-c1ccc2c(c1)CC[C@@H]2NC(=O)c1ccc2[nH]c(=O)sc2c1	7.62

====

# assaySystem: AKT2 (Homo sapiens, UniProt P31751)
# Construct: expressed in transfected cells; host or cells: HEK293
# measurementNotes: Live cell AKT2 target engagement by NanoBRET competitive probe displacement in HEK293 cells
# Assay type: binding
# statedConditions: NanoBRET competitive probe displacement, live HEK293 cells, 2 h at 37° C.; read-out: AKT2 IC50
pIC50: −log10 of the molar value.
Listing: pIC50 of selected compounds
measuredEndpoint: pIC50

compound	experimentalValue
Nc1ncccc1-c1nc2ccc(-n3nccn3)nc2n1-c1ccc2c(c1)CC[C@@H]2NC(=O)c1cnc(C(F)(F)F)s1	5.90
COc1ccn(-c2ccc3nc(-c4cccnc4N)n(-c4ccc5c(c4)CC[C@@H]5NC4[C@@H]5COC[C@H]4CN(C(=O)C4CC4)C5)c3n2)n1 (single isomer, unassigned) [Compound 523]	5.76
CN(CC1CC1)[C@H]1CCc2cc(-n3c(-c4cccnc4N)nc4ccc(-n5cccn5)nc43)ccc21	5.80
COc1ccn(-c2ccc3nc(-c4cccnc4N)n(-c4ccc5c(c4)CC[C@@H]5NC4[C@@H]5COC[C@H]4CN(C(=O)C4CC4)C5)c3n2)n1 (single isomer, unassigned) [Compound 524]	5.76
